Kindly supply the reported pIC50 values for the records listed here.
molecular target: full-length human PDE4B2 isozyme (Homo sapiens, UniProt Q07343); construct: The full-length human PDE4B2 isozyme; His6 (N); TEV cleavage site (N); made in house; host or cells: baculovirus infected insect cells (unpurified lysate); assay: PDE4 IC50 determination by Scintillation Proximity Assay, PDE4B2; assay type: biochemical; conditions: Table 1B, Formula I compounds; read-out: IC50 PDE4B2
Sequence (Q07343 1-564 isoform Q07343-2): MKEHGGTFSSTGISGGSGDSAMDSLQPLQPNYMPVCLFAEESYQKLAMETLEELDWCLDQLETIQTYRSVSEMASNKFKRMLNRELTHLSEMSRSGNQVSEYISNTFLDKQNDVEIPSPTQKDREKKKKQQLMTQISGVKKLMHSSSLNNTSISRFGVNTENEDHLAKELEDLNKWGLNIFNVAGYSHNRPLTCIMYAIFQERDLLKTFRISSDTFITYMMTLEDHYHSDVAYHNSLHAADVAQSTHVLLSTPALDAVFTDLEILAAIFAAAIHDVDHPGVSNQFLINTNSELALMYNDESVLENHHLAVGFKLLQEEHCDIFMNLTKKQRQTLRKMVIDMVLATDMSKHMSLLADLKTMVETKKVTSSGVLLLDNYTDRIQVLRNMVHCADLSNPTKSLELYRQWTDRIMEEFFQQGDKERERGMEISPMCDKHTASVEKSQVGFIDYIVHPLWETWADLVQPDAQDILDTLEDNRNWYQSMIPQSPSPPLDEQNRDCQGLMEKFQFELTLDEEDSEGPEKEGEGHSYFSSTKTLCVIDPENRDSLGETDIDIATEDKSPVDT
pIC50: −log10 of the molar value.

In: Identify measured pIC50 associated with Cc1c(Nc2ccc(Oc3ccccc3)cc2)sc(C(=O)c2ccccc2)c1N
Out: < 5.00

In: Provide measured pIC50 value, entry: Cc1c(C(=O)c2sc(NC3CCCC3)c(C#N)c2N)cnn1-c1ccccc1
Out: > 5.00

In: Read the entry N#Cc1c(NC2CCCC2)sc(C(=O)c2nc3ccccc3s2)c1N and write its reported pIC50.
Out: > 5.00

In: Quickly give me recorded pIC50 for COc1ccccc1Nc1sc(C(=O)c2ccc(C)cc2)c(N)c1C#N
Out: > 5.00

In: Consider the molecule COC(=O)C(CCSC)Nc1sc(C(=O)c2ccc(-c3ccccn3)s2)c(N)c1C#N (stereo not shown) and give its recorded pIC50.
Out: > 5.00

In: State its pIC50: CCC(CC)Nc1sc(C(=O)c2cc(-c3ccccc3)no2)c(N)c1C#N
Out: < 5.00

In: Return reported pIC50. Input molecule: N#Cc1c(NC2CCCC2)sc(C(=O)c2ccc(-c3ccccn3)s2)c1N
Out: > 5.00

In: Given N#Cc1c(NC2CCCC2)sc(C(=O)c2cc(-c3ccc([N+](=O)[O-])cc3)no2)c1N , respond with its pIC50.
Out: > 5.00

In: Return value of pIC50 for input N#Cc1c(NCc2ccccc2)sc(C(=O)c2cc(-c3ccccc3)no2)c1N , no commentary.
Out: < 5.00

In: Return pIC50 for the following molecule: Cc1nc(-c2cnccn2)sc1C(=O)c1sc(NC2CCCC2)c(C(N)=O)c1N
Out: > 5.00

In: Report pIC50, nothing else, for this molecule: COc1ccc(Nc2sc(C(=O)c3ccc(-c4ccccn4)s3)c(N)c2C#N)cc1
Out: < 5.00

In: Tell us which pIC50 value is on record for N#Cc1c(NCCN2CCCCC2)sc(C(=O)c2cc(-c3ccc(Cl)c(Cl)c3)no2)c1N
Out: < 5.00

In: Output pIC50 of N#Cc1c(NC2CCCC2)sc(C(=O)c2cc(-c3ccc(Cl)c(Cl)c3)no2)c1N
Out: > 5.00

In: Give pIC50 for Cc1c(Nc2ccccc2)sc(C(=O)c2ccc(Cl)cc2)c1N
Out: > 5.00

In: Read the entry N#Cc1c(NC2CCCC2)sc(C(=O)c2cc(-c3c(Cl)cccc3Cl)no2)c1N and write its reported pIC50.
Out: > 5.00

In: Consider the molecule CC(C)CNc1sc(C(=O)c2cc(-c3ccc(Cl)c(Cl)c3)no2)c(N)c1C(N)=O . State its measured pIC50.
Out: > 5.00

In: Look up and report measured pIC50 for this entry: N#Cc1c(NCCN2CCCCC2)sc(C(=O)c2cc(-c3ccccc3)no2)c1N
Out: < 5.00

In: Return pIC50 for the following molecule: COc1ccccc1Nc1sc(C(=O)c2cc(-c3ccccc3)no2)c(N)c1C#N
Out: > 5.00

In: Check the records and state pIC50 for CC(C)CNc1sc(C(=O)c2cc(-c3ccccc3)no2)c(N)c1C#N
Out: > 5.00

In: Input CCc1c(Nc2ccc(Oc3ccccc3)cc2)sc(C(=O)c2ccccc2)c1N , output reported pIC50.
Out: > 5.00

In: For the molecule N#Cc1c(Nc2ccc(C(=O)NC3CCOC3=O)cc2)sc(C(=O)c2cc(-c3ccccc3)no2)c1N (stereo not shown) , give its reported pIC50.
Out: > 5.00

In: Fill in pIC50 for record COc1ccc(Nc2sc(C(=O)c3c(-c4ccccc4)noc3C)c(N)c2C#N)cc1
Out: > 5.00
